The measurements presented in this section are drawn from patent US20190127454A1.

- Assay target: T1, human SCUBE2 (Signal peptide-CUB-EGF domain-containing protein 2) (human, UniProt Q9NQ36 38-999)
- T1 construct: Signal peptide a.a; 1-37 and mature protein a.a; also GST.SCUBE2-CUB); also called FLAG.SCUBE2-FL; FLAG-tagged SCUBE2
- T1 sequence: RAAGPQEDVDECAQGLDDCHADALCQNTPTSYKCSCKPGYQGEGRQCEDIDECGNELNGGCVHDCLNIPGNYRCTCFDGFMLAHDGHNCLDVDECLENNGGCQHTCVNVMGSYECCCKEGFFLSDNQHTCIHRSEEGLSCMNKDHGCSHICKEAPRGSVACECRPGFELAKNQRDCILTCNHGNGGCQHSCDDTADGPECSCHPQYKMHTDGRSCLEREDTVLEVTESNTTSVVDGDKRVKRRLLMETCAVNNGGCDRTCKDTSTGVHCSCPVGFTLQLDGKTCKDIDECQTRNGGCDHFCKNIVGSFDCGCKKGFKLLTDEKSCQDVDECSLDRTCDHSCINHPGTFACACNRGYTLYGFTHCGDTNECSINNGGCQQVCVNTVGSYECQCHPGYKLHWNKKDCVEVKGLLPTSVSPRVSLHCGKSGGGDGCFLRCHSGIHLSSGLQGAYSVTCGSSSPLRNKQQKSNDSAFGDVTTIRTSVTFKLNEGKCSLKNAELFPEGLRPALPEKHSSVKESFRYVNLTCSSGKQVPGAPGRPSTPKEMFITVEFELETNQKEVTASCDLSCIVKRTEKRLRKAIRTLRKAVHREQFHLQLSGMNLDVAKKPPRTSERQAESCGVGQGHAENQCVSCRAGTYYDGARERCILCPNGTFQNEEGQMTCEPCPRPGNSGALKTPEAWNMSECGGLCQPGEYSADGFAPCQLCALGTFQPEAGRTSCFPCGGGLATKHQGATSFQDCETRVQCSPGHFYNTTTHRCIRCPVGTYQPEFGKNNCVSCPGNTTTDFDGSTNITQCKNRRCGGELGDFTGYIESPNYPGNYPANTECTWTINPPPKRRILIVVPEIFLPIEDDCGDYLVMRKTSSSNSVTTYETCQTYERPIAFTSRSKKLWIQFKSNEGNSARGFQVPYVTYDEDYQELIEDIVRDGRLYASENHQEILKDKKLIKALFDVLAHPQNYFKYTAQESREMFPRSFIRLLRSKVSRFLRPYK
- Test details: domain mapping (FIG. 12A); method not described
Observed property: binding result

1) anti-SCUBE2 mAb clone SP-B2 (antibody, IgG1, V domains shown) VH: EVQRVESGGGLVKPGGSLKLSCAASGFTFRNYAMSWVRQTTEKKLEWVATINDVGSYTYFPASVKGRFTVSRDNTKNTLYLQMSSLRSEDTAMYYCVTSSDTVPHHHALDYWGQGSSVTVSS VL: DIVMTQPPASLAVSLGQRATVFCRASQNVDSRGISFMHWYQQKPGQPPKLLIYAASNLESGIPARFRGSGSGTDFTLNIHPVEEEDVATYYCQQSVEDLTFGGGTKLELK    binds
2) anti-SCUBE2 mAb clone CR-#5 (antibody, IgG2b, V domains shown) VH: EVQRVESGGDLVKPGGTLKLSCAASGFTFRNYGMSWVRQTPDKRLEWVATISSGGVYIYYPDSVKGRFTISRDNAKNTLFLQMSSLRSEDSAMYYCARDDYDGRGYFDYWGQGTTLTVSS VL: DIVMSQSPSSLAVSAGEKVTMSCKSSQSLLNSRTRKNYLAWYQQKPGQSPKLLIYWASTRESGVPDRFTGSGSGTDFTLTISSVQAEDLAVYYCKQSYNLPTFGSGTKLDIK    binds
3) anti-SCUBE2 mAb clone SP-A1 (antibody, IgG1, V domains shown, Mouse hybridoma mAb, IgG1) VH: EVQLQQSGPELVKPGASVKVSCKASGYAFTSYNMYWVKQSHGKSLEWIGYIDPYNGDTNNNQKFKGKATLTVDKSSSTAYMHLNSLTSEDSAVYYCARSYRYLAWFAYWGQGTLVTVSA VL: DIVMTQSPLSLPVSLGDQASISCRSSQSIVHSNGNTYLEWYLQKPGQSPKLLIYTVSNRFSGVPDRFSGSGSGTDFTLRISRVEAEDLGVYYCFQGSHIPYTFGGGTKLELK    binds
4) anti-SCUBE2 mAb clone EGF-C3 (antibody, IgG2a, V domains shown) VH: EVKLVESGGGLVQPGGSRKLSCVASGFTISSFGMHWVRQAPERGLEWVAYISSGSNTIYYADTVKGRFTISRDNPKNTLFLQMTSLWSEDTAMYYCARSGTLDGWFTYWGRGTLVTVST VL: DIVMTQPPLSLPVSLGDQASISCRSSQSILHSNGNTYLEWYLQKPGQSPKLLIYKLFNRFSGVPDRFNGSGSGTDFTLKISRAEAEDLGVYYCLQGSHVPPTFGAGTKLEIK    binds
5) anti-SCUBE2 mAb clone SP-B1 (antibody, IgG1, V domains shown, also called SP.B1 mAb) VH: EVQLQQSGPELVKPGASVKVSCKASGYAFTSYNMYWVKQSHGKSLEWIGYIDPYNGDTNNNQKFKGKATLTVDKSSSTAYMHLNSLTSEDSAVYYCARSYRYLAWFAYWGQGTLVTVSA VL: DIVMTQSPLSLPVSLGDQASISCRSSQSIVHSNGNTYLEWYLQKPGQSPKLLIYTVSNRFSGVPDRFSGSGSGTDFTLRISRVEAEDLGVYYCFQGSHIPYTFGGGTKLELK    binds
